// provenance: ChEMBL document CHEMBL1127852

- Tested on: Pseudomonas aeruginosa
- EXPERIMENT: Compound was tested for its minimal inhibitory constant against Gram-negative microorganism Pseudomonas aeruginosa E-2 (Pa(E))
- Format: functional
RESULT_TYPE: MIC (µg/mL)
Answers are plain numbers, in µg/mL.

// input: 2 molecules below; output: MIC for each
1. CNCC1CN(c2c(F)cc3c(=O)c(C(=O)O)c4scc5n4c3c2N(C)C5)CCO1 (centres undefined)
2. CN1Cc2csc3c(C(=O)O)c(=O)c4cc(F)c(N5CCOC(CF)C5)c1c4n23 (centres undefined)

1. 3.13
2. 0.78

* * *

- System: Pseudomonas aeruginosa
- EXPERIMENT: Compound was tested for its minimal inhibitory constant against Gram-negative microorganism Pseudomonas aeruginosa E-2 (Pa(E))
- Format: functional
RESULT_TYPE: MIC (µg/mL)
Answers are plain numbers, in µg/mL.

# annotated cases, reported MIC shown
[
  {
    "MOLECULE": "COC[C@@H]1CN(c2c(F)cc3c(=O)c(C(=O)O)c4scc5n4c3c2N(C)C5)CCO1",
    "MIC, µg/mL": 3.13
  },
  {
    "MOLECULE": "CC1CN(c2c(F)cc3c(=O)c(C(=O)O)c4scc5n4c3c2N(C)C5)CC(C)O1 (centres undefined)",
    "MIC, µg/mL": 3.13
  },
  {
    "MOLECULE": "CN(C)CC1CN(c2c(F)cc3c(=O)c(C(=O)O)c4scc5n4c3c2N(C)C5)CCO1 (centres undefined)",
    "MIC, µg/mL": 6.25
  }
]

// moving on: another record for MIC
Bench note: what MIC did "COC[C@H]1CN(c2c(F)cc3c(=O)c(C(=O)O)c4scc5n4c3c2N(C)C5)CCO1" show?
3.13

* * *

- Test system: Enterococcus faecalis
- EXPERIMENT: Compound was tested for its minimal inhibitory constant against Gram-positive microorganism Enterococcus faecalis IID682 (Ef)
- Type: functional
Assign MIC to each entry below.
Numbers only, in µg/mL.

Check out these entries, answers already filled in.
[
  {
    "COMPOUND": "CN(C)CC1CN(c2c(F)cc3c(=O)c(C(=O)O)c4scc5n4c3c2N(C)C5)CCO1 (stereo not given)",
    "ASSAY_TARGET": "Enterococcus faecalis",
    "UOM": "µg/mL",
    "MIC": 0.1
  },
  {
    "COMPOUND": "CC1COc2c(N3CCN(C)CC3)c(F)cc3c(=O)c(C(=O)O)cn1c23 (stereo not given)",
    "ASSAY_TARGET": "Enterococcus faecalis",
    "UOM": "µg/mL",
    "MIC": 1.56
  },
  {
    "COMPOUND": "CN1Cc2csc3c(C(=O)O)c(=O)c4cc(F)c(N5CCOCC5)c1c4n23",
    "ASSAY_TARGET": "Enterococcus faecalis",
    "UOM": "µg/mL",
    "MIC": 0.05
  },
  {
    "COMPOUND": "CC1CN(c2c(F)cc3c(=O)c(C(=O)O)c4scc5n4c3c2N(C)C5)CC(C)O1 (stereo not given)",
    "ASSAY_TARGET": "Enterococcus faecalis",
    "UOM": "µg/mL",
    "MIC": 0.2
  }
]

Here is another compound to look at.
Any idea what MIC came out for "COC[C@H]1CN(c2c(F)cc3c(=O)c(C(=O)O)c4scc5n4c3c2N(C)C5)CCO1" on Enterococcus faecalis?
0.2

* * *

- Test system: Micrococcus luteus
- EXPERIMENT: Compound was tested for its minimal inhibitory constant against Gram-positive microorganism Micrococcus luteus ATCC 9341 (MI)
- Assay type: functional
RESULT_TYPE: MIC (µg/mL)
One number for each entry, in µg/mL.

[
  {
    "COMPOUND": "CN(C)CC1CN(c2c(F)cc3c(=O)c(C(=O)O)c4scc5n4c3c2N(C)C5)CCO1 (stereo not drawn)",
    "VAL": 0.2
  },
  {
    "COMPOUND": "CC1CN(c2c(F)cc3c(=O)c(C(=O)O)c4scc5n4c3c2N(C)C5)CC(C)O1 (stereo not drawn)",
    "VAL": 0.2
  }
]

Please report the recorded MIC for CN1Cc2csc3c(C(=O)O)c(=O)c4cc(F)c(N5CCOC(CF)C5)c1c4n23 (stereo not drawn) .
0.1

* * *

Please provide measured MIC for the entries that follow.
- System: Escherichia coli
- EXPERIMENT: Compound was tested for its minimal inhibitory constant against Gram-negative microorganism Escherichia coli KC-14 (Ec(K))
- Type: functional
Answers are plain numbers, in µg/mL.

[
  {
    "MOLECULE": "CN(C)CC1CN(c2c(F)cc3c(=O)c(C(=O)O)c4scc5n4c3c2N(C)C5)CCO1 (centres undefined)",
    "RESULT_TYPE": "MIC",
    "VAL": 0.2
  }
]

Go through the items and report each one's MIC.
1. CNCC1CN(c2c(F)cc3c(=O)c(C(=O)O)c4scc5n4c3c2N(C)C5)CCO1 (centres undefined)
2. CC1CN(c2c(F)cc3c(=O)c(C(=O)O)c4scc5n4c3c2N(C)C5)CC(C)O1 (centres undefined)
3. COC[C@H]1CN(c2c(F)cc3c(=O)c(C(=O)O)c4scc5n4c3c2N(C)C5)CCO1
4. CC1CN(c2c(F)cc3c(=O)c(C(=O)O)c4scc5n4c3c2N(C)C5)CCO1 (centres undefined)
5. CCC1CN(c2c(F)cc3c(=O)c(C(=O)O)c4scc5n4c3c2N(C)C5)CCO1 (centres undefined)
6. CN1Cc2csc3c(C(=O)O)c(=O)c4cc(F)c(N5CCOC(CCl)C5)c1c4n23 (centres undefined)
7. CN1Cc2csc3c(C(=O)O)c(=O)c4cc(F)c(N5CCOCC5)c1c4n23
8. CC1COc2c(N3CCN(C)CC3)c(F)cc3c(=O)c(C(=O)O)cn1c23 (centres undefined)

0.2
0.39
0.39
0.1
0.39
0.2
0.1
0.1

* * *

- Tested on: Escherichia coli
- EXPERIMENT: Compound was tested for its minimal inhibitory constant against Gram-negative microorganism Escherichia coli KC-14 (Ec(K))
- Assay type: functional
Would you kindly list MIC for each of these molecules?
Answers are plain numbers, in mg/L.

Worked set:
[
  {
    "MOLECULE": "COC[C@@H]1CN(c2c(F)cc3c(=O)c(C(=O)O)c4scc5n4c3c2N(C)C5)CCO1",
    "VAL": 0.39
  },
  {
    "MOLECULE": "CN1Cc2csc3c(C(=O)O)c(=O)c4cc(F)c(N5CCOC(CF)C5)c1c4n23 (centres undefined)",
    "VAL": 0.1
  },
  {
    "MOLECULE": "COCC1CN(c2c(F)cc3c(=O)c(C(=O)O)c4scc5n4c3c2N(C)C5)CCO1 (centres undefined)",
    "VAL": 0.39
  }
]

API: the following record is the query input.
For the molecule shown here, CN1Cc2csc3c(C(=O)O)c(=O)c4cc(F)c(N5CCOC(CO)C5)c1c4n23 (centres undefined) , give the reported MIC.
0.1

* * *

- System: Enterococcus faecalis
- EXPERIMENT: Compound was tested for its minimal inhibitory constant against Gram-positive microorganism Enterococcus faecalis IID682 (Ef)
- Assay type: functional
RESULT_TYPE: MIC (µg/mL)
Answers are plain numbers, in µg/mL.

Completed entries (count: 5):
[
  {
    "COMPOUND": "CC1CN(c2c(F)cc3c(=O)c(C(=O)O)c4scc5n4c3c2N(C)C5)CCO1 (stereo not drawn)",
    "RESULT_TYPE": "MIC",
    "VAL": 0.05
  },
  {
    "COMPOUND": "CN1Cc2csc3c(C(=O)O)c(=O)c4cc(F)c(N5CCOC(CCl)C5)c1c4n23 (stereo not drawn)",
    "RESULT_TYPE": "MIC",
    "VAL": 0.05
  },
  {
    "COMPOUND": "CN1Cc2csc3c(C(=O)O)c(=O)c4cc(F)c(N5CCOC(CO)C5)c1c4n23 (stereo not drawn)",
    "RESULT_TYPE": "MIC",
    "VAL": 0.1
  },
  {
    "COMPOUND": "CNCC1CN(c2c(F)cc3c(=O)c(C(=O)O)c4scc5n4c3c2N(C)C5)CCO1 (stereo not drawn)",
    "RESULT_TYPE": "MIC",
    "VAL": 0.2
  },
  {
    "COMPOUND": "CN1Cc2csc3c(C(=O)O)c(=O)c4cc(F)c(N5CCOC(CF)C5)c1c4n23 (stereo not drawn)",
    "RESULT_TYPE": "MIC",
    "VAL": 0.05
  }
]

Give MIC for each of the items listed below.
1. COCC1CN(c2c(F)cc3c(=O)c(C(=O)O)c4scc5n4c3c2N(C)C5)CCO1 (stereo not drawn)
2. CCC1CN(c2c(F)cc3c(=O)c(C(=O)O)c4scc5n4c3c2N(C)C5)CCO1 (stereo not drawn)

1: 0.2; 2: 0.1

Entry "COC[C@@H]1CN(c2c(F)cc3c(=O)c(C(=O)O)c4scc5n4c3c2N(C)C5)CCO1" has what MIC?
0.2
